- System: Plasmodium falciparum K1
- Test name: WHO-TDR: Malaria
- Type: functional, organism-based, Homo sapiens
- Condition: Erythrocyte
Parameter: IC50

CCOC(=O)c1ccc(NC(=O)CC2CCCCN2S(=O)(=O)c2ccc(OC)cc2)cc1 (stereo not given) ... > 13.8 µg/mL

input: # get_value(readout= IC50, system= Plasmodium falciparum K1) for O=C(CCCn1nc(-c2ccccc2)ccc1=O)N1CCN(c2ccccc2F)CC1
output: > 12.6 µg/mL

input: // next record C=CCN(CC=C)S(=O)(=O)c1ccc(C(=O)Nc2nnc(-c3ccc(C)cc3C)o2)cc1
output: > 13.6 µg/mL

input: // next record CSc1ccccc1-c1nnc(NC(=O)c2ccc(Cl)s2)o1
output: > 10.6 µg/mL

input: // next record CCn1nc(C)cc1C(=O)N1CCN(c2nc3c(C)ccc(C)c3s2)CC1
output: > 11.5 µg/mL

input: // next record CCOC(=O)c1c(NC(=O)c2cccc(C(F)(F)F)c2)sc2c1CCN(C)C2
output: > 13.5 µg/mL

input: // next record Cc1csc(NC(=O)CSc2nnc(NC(=O)c3ccco3)s2)n1
output: 1.14 µg/mL

input: // next record CCOc1ccc(N2CC(CNS(=O)(=O)c3cccc(C(F)(F)F)c3)CC2=O)cc1 (stereo not given)
output: > 13.3 µg/mL

input: // next record CCCc1cc(=O)[nH]c(-n2nc(C)cc2NC(=O)C2CC(=O)N(c3ccc(C)c(C)c3)C2)n1 (stereo not given)
output: > 13.5 µg/mL

###

- Test name: WHO-TDR: Cytotoxicity
- Type: toxicity, cell-based
- Condition: human, MRC5 cells
Parameter: IC50

input: Query: IC50; subject: NC(=O)c1ccc(NC(=O)CCCn2nc(-c3ccc(Cl)cc3)ccc2=O)cc1
output: > 12.3 mg/L

###

- System: Leishmania infantum
- Test name: WHO-TDR: Leishmaniasis
- Format: functional, organism-based, Mus musculus
- Condition: Macrophage
Measured IC50 values are reported for all entries that follow.

Field: example entries. Status: answers known.
O=C(Nc1onc2c1CCCC2)c1cccc(Oc2ccccc2)c1 ... > 10 µg/mL
COc1ccc(-c2cn3c(C(=O)Nc4ccc(F)cc4F)csc3n2)cc1 ... > 11.6 µg/mL

API: the following record is the query input.
input: Query: IC50; subject: Cc1ccc(S(=O)(=O)N2CCC(C(=O)Nc3c(C(N)=O)oc4ccccc34)CC2)cc1
output: > 13.2 µg/mL

###

- Test name: WHO-TDR: Cytotoxicity
- Assay type: toxicity, cell-based
- Condition: human, MRC5 cells
Parameter: IC50

O=C(Cc1csc(NC(=O)c2ccc[nH]c2=O)n1)NCc1ccncc1 ... > 11.1 mg/L
Cc1cc2cc(CNC(=O)CC(c3ccccc3)c3ccccc3)ccc2[nH]1 ... > 11.1 mg/L

input: Query: IC50; subject: O=C(C1CCCC1)N1CCc2ccc(NS(=O)(=O)c3ccc4c(c3)OCCO4)cc21
output: > 12.9 mg/L

###

Measured IC50 values are reported for all entries that follow.
- Test name: WHO-TDR: Cytotoxicity
- Format: toxicity, cell-based
- Condition: human, MRC5 cells
Answer with a number only, understood to be in µg/mL.

input: Query: IC50; subject: CCN(CC)c1cc(C)nc(Nc2ccc(NC(=O)c3cccs3)cc2)n1
output: 2.96

input: // next record CCOC(=O)c1c(NC(=O)C2COc3ccccc3O2)sc2c1CC(C)(C)NC2(C)C (stereo not given)
output: 5.73

input: // next record CC(C)(C)C(=O)Nc1nnc(SCC(=O)Nc2ccc(Cl)c(Cl)c2)s1
output: 2.84

input: // next record Cc1onc(-c2ccccc2Cl)c1C(=O)Nc1nnc(SCC(=O)Nc2ccc3c(c2)OCO3)s1
output: 2.1

###

- Test name: WHO-TDR: Cytotoxicity
- Type: toxicity, cell-based
- Condition: human, MRC5 cells
Parameter: IC50

CCOC(=O)c1sc(NC(=O)C2CCCN2S(C)(=O)=O)nc1-c1ccccc1 (configuration not stated) ... > 12.7 µg/mL
CCn1ccc(C(=O)Nc2nc(C(C)(C)C)cs2)n1 ... > 8.35 µg/mL
Cc1ccc(NC(=O)CN2CCN(c3nccn3-c3ccccc3F)CC2)cc1 ... > 11.8 µg/mL
COc1ccc(S(=O)(=O)NCC(c2cccc3ccccc23)N(C)C)cc1C (configuration not stated) ... > 12 µg/mL
O=C(Nc1nc2c(s1)CCCC2C(=O)NCCC1=CCCCC1)c1ccccc1 (configuration not stated) ... > 12.3 µg/mL

input: Query: IC50; subject: CN(CC1CCCO1)S(=O)(=O)c1ccc(C(=O)Nc2cccc(-c3nc4ccccc4o3)c2)cc1 (configuration not stated)
output: > 8.86 µg/mL

input: // next record CC1CCN(C(C)CNC(=O)Nc2cccc(Cl)c2)CC1 (configuration not stated)
output: > 9.29 µg/mL

###

- Test system: Trypanosoma cruzi
- Test name: WHO-TDR: Chagas disease
- Type: functional, organism-based, Homo sapiens
- Condition: MRC5
Measured IC50 values are reported for all entries that follow.

O=C(CCc1csc(NC(=O)c2cccs2)n1)Nc1nc2ccccc2s1 ... > 12.4 µg/mL

input: # get_value(readout= IC50, system= Trypanosoma cruzi) for COC(=O)c1ccc(CSc2ccc(NC(=O)C(C)C)nn2)o1
output: > 10.1 µg/mL

input: // next record O=C(Nc1nnc(-c2ccno2)o1)c1nc2ccccc2s1
output: > 9.4 µg/mL

input: // next record O=C(Nc1nc(-c2ccccn2)cs1)c1ccc2c(c1)CCCC2
output: > 10.1 µg/mL

input: // next record Cc1ccc(NC(=O)c2oc3ccccc3c2NC(=O)CC(c2ccccc2)c2ccccc2)cc1C
output: > 14.7 µg/mL

input: // next record O=C(Nc1cc2ccccc2cc1NC(=O)c1ccc2c(c1)OCCO2)c1ccc2c(c1)OCCO2
output: > 14.5 µg/mL

input: // next record COc1cc(NCCNC(=O)C(C)C)nc(OC)n1
output: > 8.05 µg/mL

###

- System: Schistosoma mansoni
- Test name: WHO-TDR: Schistosomiasis
- Type: functional
- Set-up: concentration or dose not given beside the values
Parameter: % Inhibition (%)
Answer with a number only, understood to be in %.

O=C(NCCNc1ccc(Nc2ccccn2)nn1)c1cccc(C(F)(F)F)c1 ... 0
CCCc1cc(=O)[nH]c(-n2nc(C)cc2NC(=O)C2CC(=O)N(c3ccc(C)c(C)c3)C2)n1 (centres undefined) ... 0
Cc1ccc(Cl)cc1S(=O)(=O)Nc1ccc2c(c1)NC(=O)C(C)(C)CO2 ... 0
CS(=O)(=O)NCC(c1ccco1)S(=O)(=O)c1ccc(Cl)cc1 (centres undefined) ... 0
CCN(CC)CCSc1ccc(-c2sc(-c3ccc(F)cc3)nc2C)nn1 ... 0
CN(Cc1ccco1)S(=O)(=O)c1ccc(C(=O)Nc2nnc(-c3cccs3)o2)cc1 ... 0

input: # get_value(readout= % Inhibition, system= Schistosoma mansoni) for Cc1ccc(NC(=O)CSc2nncc(=O)[nH]2)cc1Cl
output: 100

input: // next record CCNc1cc(C)nc(Nc2ccc(NC(=O)CC3CCCC3)cc2)n1
output: 66.7

input: // next record NC(=O)c1ccc(NC(=O)CCCn2nc(-c3ccc(Cl)cc3)ccc2=O)cc1
output: 16.7

###

- Test name: WHO-TDR: Cytotoxicity
- Type: toxicity, cell-based
- Condition: human, MRC5 cells
Parameter: IC50

Field: example entries. Status: answers known.
O=C(CN1CCN(c2nccn2-c2cccc(Cl)c2)CC1)Nc1ccc(F)cc1F ... > 15.1 µg/mL
CN1CCN(C(CNC(=O)CCc2ccccc2)c2ccsc2)CC1 (stereo not drawn) ... > 10.7 µg/mL

input: Query: IC50; subject: CCn1nc(C(=O)Nc2nnc(CCSc3ccccc3)o2)cc1C
output: > 10.7 µg/mL

###

- Test name: WHO-TDR: Cytotoxicity
- Type: toxicity, cell-based
- Condition: human, MRC5 cells
Parameter: IC50

COc1ccc(OC)c(Nc2c(C#N)cnc3ccc(Cl)cc23)c1 ... 1.08 µg/mL

input: Query: IC50; subject: COc1ccccc1OCC(=O)Nc1nc(CSCc2ccc(F)cc2)cs1
output: > 12.6 µg/mL

input: // next record CCOc1cccc2sc(Nc3nc4ccc5sc(C)nc5c4s3)nc12
output: > 12 µg/mL

###

- System: Trypanosoma brucei brucei
- Test name: WHO-TDR: Human African Trypanosomiasis (HAT)
- Type: functional, organism-based
- Condition: Squib-427
Measured IC50 values are reported for all entries that follow.

Field: example entries. Status: answers known.
NC(=O)CSc1nc(-c2ccccc2)c(NC(=O)c2cc3ccccc3o2)s1 ... > 12.3 mg/L
COc1ccc(S(=O)(=O)Nc2cc(C)nn2C2CCS(=O)(=O)C2)cc1C (stereo not drawn) ... > 12 mg/L
O=C(Nc1ccc(F)cc1)Nc1cccc(-c2ccc(N3CCCC3)nn2)c1 ... > 11.3 mg/L
CC(C)(C)C(=O)N1CCc2ccc(NC(=O)Cc3cccs3)cc21 ... > 10.3 mg/L
CCc1ccc2nc(N(CCN(CC)CC)C(=O)Cc3ccc4c(c3)OCO4)sc2c1 ... 0.457 mg/L
CSc1ccc2nc(N(Cc3cccnc3)C(=O)c3ccc(C(=O)c4ccccc4)cc3)sc2c1 ... > 14.9 mg/L
O=C(Cc1csc(NC(=O)c2ccc(=O)[nH]c2)n1)NCc1cccs1 ... > 11.2 mg/L
Cc1cc(NC(=O)CSc2ccc3nnc(-c4cccs4)n3n2)no1 ... > 11.2 mg/L
O=S(=O)(Nc1cccc(-c2nc3ccccc3s2)c1)c1ccc(Cl)s1 ... > 12.2 mg/L
CCCN1C(=O)CCc2cc(NS(=O)(=O)c3ccc(F)cc3)ccc21 ... 3.56 mg/L

input: # get_value(readout= IC50, system= Trypanosoma brucei brucei) for CCOC(=O)N1CCN(C(=O)Nc2nc(CC(=O)Nc3ccc(F)c(F)c3)cs2)CC1
output: > 13.6 mg/L

input: // next record O=C1CC(CNS(=O)(=O)c2ccccc2C(F)(F)F)CN1c1ccc(Cl)cc1 (stereo not drawn)
output: 4.25 mg/L

input: // next record CN(C)C(CNS(=O)(=O)c1ccc(Cl)s1)c1ccc(F)cc1 (stereo not drawn)
output: 3.44 mg/L
